# Tested on: Hut78 cells
# experimentNotes: IC50 assay, trypan blue exclusion count
# Format: cell-based, human
# runConditions: Homo sapiens, HuT78, 48 h
propertyMeasured: IC50 (µM)
Report only the number, with the unit µM understood.

Some compounds with known IC50 results, for comparison:
1. CC(C)(C)c1cnc(CSc2cnc(NC(=O)C3CCN(C(=O)COCCOCCSc4cccc5c4C(=O)N(C4CCC(=O)NC4=O)C5=O)CC3)s2)o1 (stereo not drawn) [Compound 19]	0.404
2. CC(C)(C)c1cnc(CSc2cnc(NC(=O)C3CCN(C(=O)CCCSc4cccc5c4C(=O)N(C4CCC(=O)NC4=O)C5=O)CC3)s2)o1 (stereo not drawn) [Compound 9]	0.339

// next entry
The compound CC(C)(C)c1cnc(CSc2cnc(NC(=O)C3CCN(CCCCCSc4cccc5c4CN(C4CCC(=O)NC4=O)C5=O)CC3)s2)o1 (stereo not drawn) [Compound 23] showed IC50 equal to 0.0497

====

# Test system: Hut78 cells
# experimentNotes: IC50 assay, trypan blue exclusion count
# Format: cell-based, human
# runConditions: Homo sapiens, HuT78, 48 h
Each entry below lists one item and its recorded IC50 value.

1. CC(C)(C)c1cnc(CSc2cnc(NC(=O)C3CCN(CCCCCCCSc4cccc5c4C(=O)N(C4CCC(=O)NC4=O)C5=O)CC3)s2)o1 (stereo not drawn) [Compound 26]	0.05 to 0.165 µM

The compound CC(C)(C)c1cnc(CSc2cnc(NC(=O)C3CCN(CCCCSc4cccc5c4C(=O)N(C4CCC(=O)NC4=O)C5=O)CC3)s2)o1 (stereo not drawn) [Compound 25] showed IC50 equal to 0.05 to 0.165 µM

The compound CC(C)(C)c1cnc(CSc2cnc(NC(=O)C3CCN(CCCCCCCCSc4cccc5c4C(=O)N(C4CCC(=O)NC4=O)C5=O)CC3)s2)o1 (stereo not drawn) [Compound 27] showed IC50 equal to 0.05 to 0.165 µM
